# Target Desc: T1, IL-18 receptor (IL-18Rαβ) on cells (UniProt Q13478 19-541; O95256 20-599, limits assumed)
# T1 sequence (looked up) 1: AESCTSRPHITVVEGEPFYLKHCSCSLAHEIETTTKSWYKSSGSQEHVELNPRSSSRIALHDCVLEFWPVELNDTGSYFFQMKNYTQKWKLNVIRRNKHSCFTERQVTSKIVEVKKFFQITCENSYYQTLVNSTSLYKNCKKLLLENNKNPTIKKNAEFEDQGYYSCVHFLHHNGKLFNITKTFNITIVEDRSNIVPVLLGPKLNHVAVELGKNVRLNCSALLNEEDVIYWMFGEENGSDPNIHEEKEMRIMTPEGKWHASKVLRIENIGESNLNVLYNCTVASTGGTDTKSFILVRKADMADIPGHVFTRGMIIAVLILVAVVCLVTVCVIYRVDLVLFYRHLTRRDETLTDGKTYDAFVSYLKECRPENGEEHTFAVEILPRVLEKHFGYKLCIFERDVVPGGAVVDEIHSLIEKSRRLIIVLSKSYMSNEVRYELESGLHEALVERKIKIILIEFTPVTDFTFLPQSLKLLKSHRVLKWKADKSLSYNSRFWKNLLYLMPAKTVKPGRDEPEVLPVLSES
# T1 sequence (looked up) 2: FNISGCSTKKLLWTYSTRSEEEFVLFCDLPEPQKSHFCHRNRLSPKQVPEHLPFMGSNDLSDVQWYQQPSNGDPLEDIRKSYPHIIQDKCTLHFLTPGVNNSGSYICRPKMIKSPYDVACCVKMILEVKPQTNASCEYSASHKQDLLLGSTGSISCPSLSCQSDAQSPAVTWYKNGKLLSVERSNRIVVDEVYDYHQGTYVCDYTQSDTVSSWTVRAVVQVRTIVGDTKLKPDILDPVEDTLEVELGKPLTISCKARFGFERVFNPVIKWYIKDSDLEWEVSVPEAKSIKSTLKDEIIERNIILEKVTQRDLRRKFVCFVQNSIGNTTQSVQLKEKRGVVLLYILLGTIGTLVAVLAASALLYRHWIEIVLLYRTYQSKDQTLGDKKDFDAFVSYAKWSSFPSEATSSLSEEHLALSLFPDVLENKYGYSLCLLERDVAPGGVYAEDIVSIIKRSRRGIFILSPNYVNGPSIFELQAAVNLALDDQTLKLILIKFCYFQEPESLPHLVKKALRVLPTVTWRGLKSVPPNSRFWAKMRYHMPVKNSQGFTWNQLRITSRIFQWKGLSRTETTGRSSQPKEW
# Method Summary: cell-based or functional assay
Assay Metric: EC50 (pM), HEK-Blue IL-18R reporter assay
Numbers only here, please. The scale is pM.

Worked cases, answers included:
>  <Binder>
C086 (SEQ ID NO: 30; E6K, V11I, C38A, K53A, T63A, C76A, C127A) (ligand) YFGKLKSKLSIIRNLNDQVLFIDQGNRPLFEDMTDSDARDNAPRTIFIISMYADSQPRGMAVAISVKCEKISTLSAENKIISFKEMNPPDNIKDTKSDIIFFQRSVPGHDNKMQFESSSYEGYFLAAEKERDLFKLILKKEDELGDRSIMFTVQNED

>  <Reported>
0.034

$$$$
>  <Binder>
C168 (V11I, C38A, C76A, S105K, C127A) (ligand) YFGKLESKLSIIRNLNDQVLFIDQGNRPLFEDMTDSDARDNAPRTIFIISMYKDSQPRGMAVTISVKCEKISTLSAENKIISFKEMNPPDNIKDTKSDIIFFQRKVPGHDNKMQFESSSYEGYFLAAEKERDLFKLILKKEDELGDRSIMFTVQNED

>  <Reported>
7.73

$$$$

Need EC50 (pM), HEK-Blue IL-18R reporter assay of C148 (F2A, V11I, C38A, K53A, C76A, C127A) (ligand) YAGKLESKLSIIRNLNDQVLFIDQGNRPLFEDMTDSDARDNAPRTIFIISMYADSQPRGMAVTISVKCEKISTLSAENKIISFKEMNPPDNIKDTKSDIIFFQRSVPGHDNKMQFESSSYEGYFLAAEKERDLFKLILKKEDELGDRSIMFTVQNED , thanks.
7.28

Next binder: C149 (V11I, E31A, C38A, K53A, C76A, C127A) (ligand) YFGKLESKLSIIRNLNDQVLFIDQGNRPLFADMTDSDARDNAPRTIFIISMYADSQPRGMAVTISVKCEKISTLSAENKIISFKEMNPPDNIKDTKSDIIFFQRSVPGHDNKMQFESSSYEGYFLAAEKERDLFKLILKKEDELGDRSIMFTVQNED
6.6

Next binder: C156 (V11I, C38A, N41A, K53A, C76A, C127A) (ligand) YFGKLESKLSIIRNLNDQVLFIDQGNRPLFEDMTDSDARDAAPRTIFIISMYADSQPRGMAVTISVKCEKISTLSAENKIISFKEMNPPDNIKDTKSDIIFFQRSVPGHDNKMQFESSSYEGYFLAAEKERDLFKLILKKEDELGDRSIMFTVQNED
11.7

Next binder: C157 (V11I, C38A, K53A, C76A, C127A, D132A) (ligand) YFGKLESKLSIIRNLNDQVLFIDQGNRPLFEDMTDSDARDNAPRTIFIISMYADSQPRGMAVTISVKCEKISTLSAENKIISFKEMNPPDNIKDTKSDIIFFQRSVPGHDNKMQFESSSYEGYFLAAEKERALFKLILKKEDELGDRSIMFTVQNED
1.95

Next binder: IL-18 polypeptide SEQ ID NO: 54 (E06K, K53A, C38S, C68S, C76S, C127S, K70C) (ligand) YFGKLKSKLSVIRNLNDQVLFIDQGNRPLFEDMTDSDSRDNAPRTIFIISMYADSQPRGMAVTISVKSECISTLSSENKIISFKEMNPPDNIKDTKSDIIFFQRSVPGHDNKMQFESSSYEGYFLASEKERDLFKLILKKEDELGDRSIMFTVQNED
9.12

Next binder: C141 (SEQ ID NO: 82; N-terminal G, E6K, V11I, C38A, K53A, T63A, C76A, C127A) (ligand) GYFGKLKSKLSIIRNLNDQVLFIDQGNRPLFEDMTDSDARDNAPRTIFIISMYADSQPRGMAVAISVKCEKISTLSAENKIISFKEMNPPDNIKDTKSDIIFFQRSVPGHDNKMQFESSSYEGYFLAAEKERDLFKLILKKEDELGDRSIMFTVQNED
1.68

Next binder: C153 (V11I, D37A, C38A, K53A, C76A, C127A) (ligand) YFGKLESKLSIIRNLNDQVLFIDQGNRPLFEDMTDSAARDNAPRTIFIISMYADSQPRGMAVTISVKCEKISTLSAENKIISFKEMNPPDNIKDTKSDIIFFQRSVPGHDNKMQFESSSYEGYFLAAEKERDLFKLILKKEDELGDRSIMFTVQNED
14.1

Next binder: C178 (E6K, V11I, C38A, K53A, T63A, C76A, Q103R, C127A) (ligand) YFGKLKSKLSIIRNLNDQVLFIDQGNRPLFEDMTDSDARDNAPRTIFIISMYADSQPRGMAVAISVKCEKISTLSAENKIISFKEMNPPDNIKDTKSDIIFFRRSVPGHDNKMQFESSSYEGYFLAAEKERDLFKLILKKEDELGDRSIMFTVQNED
0.26

Next binder: C146 (SEQ ID NO: 79; V11I, C38A, M51G, K53A, C76A, C127A) (ligand) YFGKLESKLSIIRNLNDQVLFIDQGNRPLFEDMTDSDARDNAPRTIFIISGYADSQPRGMAVTISVKCEKISTLSAENKIISFKEMNPPDNIKDTKSDIIFFQRSVPGHDNKMQFESSSYEGYFLAAEKERDLFKLILKKEDELGDRSIMFTVQNED
0.8
